- ASSAYED_TARGET: recombinant human HPK1 (Homo sapiens (Human))
- PROTOCOL_TEXT: HPK1 kinase assay (ADP-Glo)
- EXPERIMENTAL_PARAMETERS: 25 μM ATP, MBP substrate
REPORTED_PROPERTY: IC50

# batch size: 4; output IC50 per entry
1. O=C(Nc1nc2ccc(-c3c(Cl)c(F)c(N4CCNCC4)c4[nH]ncc34)cc2s1)[C@@H]1C[C@@H]1F [Example 76]
2. CSc1c(F)c(C)c(-c2ccn3nc(NC(=O)[C@@H]4C[C@@H]4F)cc3c2)c2cn[nH]c12 [Example 488]
3. CCN(C)c1c(F)c(SC)c(-c2ccc3nc(NC(=O)[C@@H]4C[C@@H]4F)sc3n2)c2cn[nH]c12 [Example 218]
4. O=C(Nc1cn2cc(-c3c(Cl)c(F)c(-n4cccc4)c4[nH]ncc34)ccc2n1)[C@@H]1C[C@@H]1F [Example 365]

// result
101 to 500 nM
< 100 nM
< 100 nM
< 100 nM

# batch size: 3; output IC50 per entry
1. CC(c1c(F)c(Cl)c(-c2ccc3nc(NC(=O)[C@@H]4C[C@@H]4F)cn3c2)c2cn[nH]c12)n1cnnn1 (stereo partly shown) [Example 398]
2. CSc1c(F)c(N(C)C)c2[nH]ncc2c1-c1ccc2nc(NC(=O)[C@@H]3C[C@@H]3F)sc2c1 [Example 110]
3. O=C(Nc1nc2ccc(-c3c(CO)ccc4[nH]ncc34)cc2s1)C1CC1 [Example 25]

// result
1. < 100 nM
2. < 100 nM
3. 501 to 1000 nM

* * *

- ASSAYED_TARGET: recombinant human HPK1 (Homo sapiens (Human), UniProt Q92918)
- Sequence (Q92918 whole entry): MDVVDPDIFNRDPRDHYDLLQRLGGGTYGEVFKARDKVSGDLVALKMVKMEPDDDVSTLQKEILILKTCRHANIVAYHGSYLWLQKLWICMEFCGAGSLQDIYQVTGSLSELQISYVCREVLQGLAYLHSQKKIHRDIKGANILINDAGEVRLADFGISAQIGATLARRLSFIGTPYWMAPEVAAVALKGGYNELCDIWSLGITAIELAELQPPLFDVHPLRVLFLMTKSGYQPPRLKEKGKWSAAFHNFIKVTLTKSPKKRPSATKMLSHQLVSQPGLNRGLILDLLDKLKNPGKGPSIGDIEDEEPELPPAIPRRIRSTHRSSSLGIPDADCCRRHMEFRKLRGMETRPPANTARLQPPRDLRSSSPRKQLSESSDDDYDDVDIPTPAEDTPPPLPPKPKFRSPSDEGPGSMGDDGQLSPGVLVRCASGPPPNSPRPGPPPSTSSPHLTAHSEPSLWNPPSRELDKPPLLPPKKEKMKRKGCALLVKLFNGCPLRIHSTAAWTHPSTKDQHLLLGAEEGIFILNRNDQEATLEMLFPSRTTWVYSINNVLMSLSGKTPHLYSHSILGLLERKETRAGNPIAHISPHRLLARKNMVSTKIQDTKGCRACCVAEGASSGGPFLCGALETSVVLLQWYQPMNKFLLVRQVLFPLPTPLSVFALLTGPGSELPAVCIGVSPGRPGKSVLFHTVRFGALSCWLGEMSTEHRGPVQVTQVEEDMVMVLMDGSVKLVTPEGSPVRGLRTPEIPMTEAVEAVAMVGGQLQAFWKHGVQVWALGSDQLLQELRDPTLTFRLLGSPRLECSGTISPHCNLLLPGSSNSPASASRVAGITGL
- PROTOCOL_TEXT: HPK1 kinase assay (ADP-Glo)
- Assay type: biochemical
- EXPERIMENTAL_PARAMETERS: 25 μM ATP, MBP substrate
- Method: HPK1 kinase activity was measured by Promega's ADP-Glo™ kinase assay. […] Luminescence was detected after 30-min room temperature incubation with the Molecular device I3X plate reader. The IC50 values were calculated from a series of percent inhibition values determined at a range of inhibitor concentration using software routines as implemented in the GraphPad Prism 7 software and SigmaPlot13.0.
REPORTED_PROPERTY: IC50

{"SAMPLE_SMILES": "O=C(Nc1cc2cc(-c3c(C4CC4)ccc4[nH]ncc34)ccn2n1)[C@@H]1C[C@@H]1F", "ASSAYED_TARGET": "recombinant human HPK1 (Homo sapiens (Human), UniProt Q92918)", "IC50": "101 to 500 nM"}
{"SAMPLE_SMILES": "O=C(Nc1nc2ccc(-c3c(Cl)c(F)c(NCC4CNC4)c4[nH]ncc34)cc2s1)[C@@H]1C[C@@H]1F", "ASSAYED_TARGET": "recombinant human HPK1 (Homo sapiens (Human), UniProt Q92918)", "IC50": "< 100 nM"}
{"SAMPLE_SMILES": "NC(=O)c1c(F)c(Cl)c(-c2ccn3nc(NC(=O)[C@@H]4C[C@@H]4F)cc3c2)c2cn[nH]c12", "ASSAYED_TARGET": "recombinant human HPK1 (Homo sapiens (Human), UniProt Q92918)", "IC50": "> 1000 nM"}

Here is the next item to consider.
// query Let me know recorded IC50 for `NC(=O)c1c(F)c(Cl)c(-c2ccc3nc(NC(=O)[C@@H]4C[C@@H]4F)sc3c2)c2cn[nH]c12` , thanks.
// result > 1000 nM

* * *

- ASSAYED_TARGET: recombinant human HPK1 (Homo sapiens (Human))
- PROTOCOL_TEXT: HPK1 kinase assay (ADP-Glo)
- EXPERIMENTAL_PARAMETERS: 25 μM ATP, MBP substrate
pIC50: −log10 of the molar value.
Field: pIC50. Provide a value for each of the compounds that follow.

A selection of reference data follows.
{"COMPOUND": "CC(C)c1c(F)cc2[nH]ncc2c1-c1ccc2nc(NC(=O)C3CC3)cn2c1 [Example 246]", "pIC50": "> 7.00"}
{"COMPOUND": "O=C(Nc1cn2cc(-c3c(Cl)c(F)c(Cn4cncn4)c4[nH]ncc34)ccc2n1)[C@@H]1C[C@@H]1F [Example 385]", "pIC50": "> 7.00"}
{"COMPOUND": "Cc1c(F)c(SCCO)c2[nH]ncc2c1-c1ccc2nc(NC(=O)[C@@H]3C[C@@H]3F)cn2c1 [Example 292]", "pIC50": "> 7.00"}
{"COMPOUND": "CN(C)C1CCC(Nc2c(F)c(Cl)c(-c3ccn4nc(NC(=O)[C@@H]5C[C@@H]5F)cc4c3)c3cn[nH]c23)CC1 (stereo partly shown) [Example 512]", "pIC50": "> 7.00"}
{"COMPOUND": "Cc1c(F)c(Cl)c2[nH]nc(Cl)c2c1-c1ccc2nc(NC(=O)[C@@H]3C[C@@H]3F)sc2c1 [Example 53]", "pIC50": "6.30 to 7.00"}

# batch size: 5; output pIC50 per entry
1. CSc1c(F)cc(-c2ccc3nc(NC(=O)[C@@H]4C[C@@H]4F)cn3c2)c2cn[nH]c12 [Example 342]
2. CCc1c(F)c(N(C)C)c2[nH]ncc2c1-c1ccc2nc(NC(=O)[C@@H]3C[C@@H]3F)cn2c1 [Example 291]
3. C=Cc1c(F)cc2[nH]ncc2c1-c1ccc2nc(NC(=O)C3CC3)cn2c1 [Example 235]
4. O=Cc1c(F)c(Cl)c(-c2ccn3nc(NC(=O)[C@@H]4C[C@@H]4F)cc3c2)c2cn[nH]c12 [Example 626]
5. Nc1c(F)cc2[nH]ncc2c1-c1ccc2nc(NC(=O)C3CC3)cn2c1 [Example 227]

// result
["> 7.00", "> 7.00", "> 7.00", "> 7.00", "< 6.00"]

# batch size: 3; output pIC50 per entry
1. CCN(CC)c1c(F)c(Cl)c(-c2ccc3nc(NC(=O)[C@@H]4C[C@@H]4F)sc3n2)c2cn[nH]c12 [Example 154]
2. C#Cc1c(F)cc2[nH]ncc2c1-c1ccc2nc(NC(=O)[C@@H]3C[C@@H]3F)sc2c1 [Example 47]
3. Cc1ccc2[nH]ncc2c1-c1ccc2nc(NC(=O)[C@@H]3C[C@@H]3F)cn2c1 [Example 221]

// result
["> 7.00", "> 7.00", "6.30 to 7.00"]

* * *

- ASSAYED_TARGET: recombinant human HPK1 (Homo sapiens (Human))
- PROTOCOL_TEXT: HPK1 kinase assay (ADP-Glo)
- EXPERIMENTAL_PARAMETERS: 25 μM ATP, MBP substrate
pIC50: −log10 of the molar value.
REPORTED_PROPERTY: pIC50

A selection of reference data follows.
{"MOLECULE": "CNC(=O)OCCSc1c(F)c(C)c(-c2ccc3nc(NC(=O)[C@@H]4C[C@@H]4F)cn3c2)c2cn[nH]c12 [Example 312]", "ASSAYED_TARGET": "recombinant human HPK1 (Homo sapiens (Human))", "pIC50": "> 7.00"}
{"MOLECULE": "O=C(Nc1nc2ccc(-c3c(Cl)c(F)c(N4CCOCC4)c4[nH]ncc34)cc2s1)[C@@H]1C[C@@H]1F [Example 74]", "ASSAYED_TARGET": "recombinant human HPK1 (Homo sapiens (Human))", "pIC50": "6.30 to 7.00"}
{"MOLECULE": "CCOc1c(F)c(C)c(-c2ccn3nc(NC(=O)[C@@H]4C[C@@H]4F)cc3c2)c2cn[nH]c12 [Example 509]", "ASSAYED_TARGET": "recombinant human HPK1 (Homo sapiens (Human))", "pIC50": "> 7.00"}
{"MOLECULE": "Cc1ccc2[nH]ncc2c1-c1ccc2nc(NC(=O)c3ccccc3)sc2c1 [Example 8]", "ASSAYED_TARGET": "recombinant human HPK1 (Homo sapiens (Human))", "pIC50": "< 6.00"}

# batch size: 3; output pIC50 per entry
1. O=C(O)c1c(F)c(Cl)c(-c2ccc3nc(NC(=O)[C@@H]4C[C@@H]4F)sc3c2)c2cn[nH]c12 [Example 121]
2. Cc1c(F)c(F)c2[nH]ncc2c1-c1ccc2nc(NC(=O)[C@@H]3C[C@@H]3F)sc2c1 [Example 109]
3. CC(=O)Nc1c(F)c(C)c(-c2ccc3nc(NC(=O)[C@@H]4C[C@@H]4F)cn3c2)c2cn[nH]c12 [Example 308]

// result
1: < 6.00; 2: > 7.00; 3: 6.30 to 7.00

# batch size: 8; output pIC50 per entry
1. CCC(C)Nc1c(F)c(Cl)c(-c2ccc3nc(NC(=O)[C@@H]4C[C@@H]4F)cn3c2)c2cn[nH]c12 (stereo partly drawn) [Example 370]
2. CN(c1ccncc1)c1c(F)c(Cl)c(-c2ccn3nc(NC(=O)[C@@H]4C[C@@H]4F)cc3c2)c2cn[nH]c12 [Example 614]
3. CSc1c(F)c(F)c2[nH]ncc2c1-c1ccn2nc(NC(=O)[C@H]3C[C@H]3F)cc2c1 [Example 598]
4. CC(=O)c1c(F)c(C)c(-c2ccc3nc(NC(=O)[C@@H]4C[C@@H]4F)sc3c2)c2cn[nH]c12 [Example 131]
5. Cc1c(F)cc2[nH]ncc2c1-c1ccc2nc(NC(=O)[C@@H]3C[C@@H]3F)cn2c1 [Example 250]
6. O=C(Nc1cc2cc(-c3c(Cl)c(F)c(N4CCS(=O)(=O)CC4)c4[nH]ncc34)ccn2n1)[C@@H]1C[C@@H]1F [Example 628]
7. O=C(Nc1nc2ccc(-c3c(Cl)c(F)c(N4CCC(O)C4)c4[nH]ncc34)cc2s1)[C@@H]1C[C@@H]1F (stereo partly drawn) [Example 78]
8. Cc1c(F)cc2[nH]ncc2c1-c1ccc2nc(NC(=O)C3CC3)cn2c1 [Example 245]

// result
["> 7.00", "> 7.00", "> 7.00", "6.30 to 7.00", "> 7.00", "> 7.00", "6.30 to 7.00", "> 7.00"]

# credit: patent US11649255B2
